# system under test: hSCN9A (Homo sapiens, UniProt Q15858)
# Construct: expressed in transfected cells
# Sequence (Q15858 whole entry): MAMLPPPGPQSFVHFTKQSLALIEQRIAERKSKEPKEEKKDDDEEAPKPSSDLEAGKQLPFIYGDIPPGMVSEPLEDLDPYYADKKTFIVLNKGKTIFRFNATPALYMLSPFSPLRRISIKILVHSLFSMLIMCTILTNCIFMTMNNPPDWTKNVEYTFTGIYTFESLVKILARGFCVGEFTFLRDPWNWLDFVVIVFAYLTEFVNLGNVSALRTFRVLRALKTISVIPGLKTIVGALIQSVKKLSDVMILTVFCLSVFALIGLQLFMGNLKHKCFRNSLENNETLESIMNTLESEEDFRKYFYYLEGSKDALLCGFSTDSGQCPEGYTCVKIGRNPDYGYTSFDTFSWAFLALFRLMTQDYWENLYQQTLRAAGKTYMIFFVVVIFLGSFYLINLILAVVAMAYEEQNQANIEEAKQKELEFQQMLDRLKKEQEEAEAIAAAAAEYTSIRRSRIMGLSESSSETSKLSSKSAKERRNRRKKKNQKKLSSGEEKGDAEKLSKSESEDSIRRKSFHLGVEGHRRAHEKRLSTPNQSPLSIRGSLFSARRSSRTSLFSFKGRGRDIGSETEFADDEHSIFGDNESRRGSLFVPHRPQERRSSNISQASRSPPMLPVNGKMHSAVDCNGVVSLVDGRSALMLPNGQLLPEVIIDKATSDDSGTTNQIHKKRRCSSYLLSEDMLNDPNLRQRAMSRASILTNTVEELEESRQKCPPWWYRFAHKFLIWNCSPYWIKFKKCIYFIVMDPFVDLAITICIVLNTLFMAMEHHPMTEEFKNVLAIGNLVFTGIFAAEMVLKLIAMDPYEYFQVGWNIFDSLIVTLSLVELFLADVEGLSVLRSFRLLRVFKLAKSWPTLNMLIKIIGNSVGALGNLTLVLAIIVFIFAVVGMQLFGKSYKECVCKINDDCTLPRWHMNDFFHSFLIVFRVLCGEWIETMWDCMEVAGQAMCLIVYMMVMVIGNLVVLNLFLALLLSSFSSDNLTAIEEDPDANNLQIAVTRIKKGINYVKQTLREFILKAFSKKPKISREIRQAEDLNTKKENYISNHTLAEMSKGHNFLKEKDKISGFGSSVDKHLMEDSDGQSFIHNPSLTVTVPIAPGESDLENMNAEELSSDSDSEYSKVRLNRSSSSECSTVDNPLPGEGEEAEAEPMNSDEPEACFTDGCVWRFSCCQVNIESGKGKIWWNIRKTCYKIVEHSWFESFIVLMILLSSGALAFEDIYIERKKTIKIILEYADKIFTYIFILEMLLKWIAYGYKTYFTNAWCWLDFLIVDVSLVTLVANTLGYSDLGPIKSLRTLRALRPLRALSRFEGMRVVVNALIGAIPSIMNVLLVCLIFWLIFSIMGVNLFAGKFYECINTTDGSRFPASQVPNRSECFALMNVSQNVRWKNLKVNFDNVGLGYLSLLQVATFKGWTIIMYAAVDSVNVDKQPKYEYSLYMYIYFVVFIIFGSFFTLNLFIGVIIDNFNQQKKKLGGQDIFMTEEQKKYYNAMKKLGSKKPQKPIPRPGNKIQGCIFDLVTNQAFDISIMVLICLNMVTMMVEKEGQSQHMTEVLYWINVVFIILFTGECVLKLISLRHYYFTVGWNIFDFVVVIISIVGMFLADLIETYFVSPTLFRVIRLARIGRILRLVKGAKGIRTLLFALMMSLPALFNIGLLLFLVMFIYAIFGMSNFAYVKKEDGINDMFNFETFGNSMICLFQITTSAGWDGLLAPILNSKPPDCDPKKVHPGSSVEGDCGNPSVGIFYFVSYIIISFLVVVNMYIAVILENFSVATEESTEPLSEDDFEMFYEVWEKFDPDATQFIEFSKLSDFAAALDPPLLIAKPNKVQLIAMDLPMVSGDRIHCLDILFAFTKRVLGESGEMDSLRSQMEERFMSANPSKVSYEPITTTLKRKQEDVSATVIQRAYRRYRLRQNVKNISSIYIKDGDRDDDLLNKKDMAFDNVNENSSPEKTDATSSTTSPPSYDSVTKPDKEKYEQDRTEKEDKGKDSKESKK
# procedure text: Whole-cell patch-clamp electrophysiology (conventional or PatchXpress), HEK cells expressing hSCN9A, estimated IC-50
# Format: cell-based
# measurement parameters: estimated IC-50, HEK cells expressing hSCN9A; class symbols or bounds; read-out: SCN9A EIC-50
pIC50: −log10 of the molar value.
result type: pIC50

INSERT INTO measurements (compound, result) VALUES
  ('O=S(=O)(Nc1nccs1)c1ccc(Nc2c3c(nn2-c2ccccc2)CCC3)cc1F', '> 5.70');

Moving on to another compound below.
For Cc1cccc(-n2nc(C)cc2Nc2ccc(S(=O)(=O)Nc3nccs3)c(F)c2)c1 , what is its reported pIC50? > 5.70

====

# system under test: hSCN9A (Homo sapiens)
# Construct: expressed in transfected cells
# procedure text: Whole-cell patch-clamp electrophysiology (conventional or PatchXpress), HEK cells expressing hSCN9A, estimated IC-50
# Format: cell-based
# measurement parameters: estimated IC-50, HEK cells expressing hSCN9A; class symbols or bounds; read-out: SCN9A EIC-50
Measured IC50 of individual entries

INSERT INTO assay_data (compound, system_under_test, result) VALUES
  ('NC(=O)c1cn(Cc2ccc(Cl)cc2)nc1Nc1ccc(S(=O)(=O)Nc2nccs2)c(F)c1 [Compound 221]', 'hSCN9A (Homo sapiens)', '2000 to 10000 nM'),
  ('O=S(=O)(Nc1nccs1)c1ccc(Nc2ncn(Cc3ccc(F)cc3Cl)n2)c(F)c1 [Compound 207]', 'hSCN9A (Homo sapiens)', '< 2000 nM'),
  ('CC(C)(C)n1nc(Cc2ccc(Cl)cc2)cc1Nc1ccc(S(=O)(=O)Nc2nncs2)cc1 [Compound 111]', 'hSCN9A (Homo sapiens)', '2000 to 10000 nM');

Query: IC50; subject: O=S(=O)(Nc1nccs1)c1ccc(Nc2cncc(Cc3cc(F)cc(F)c3)n2)cc1 [Compound 98] 2000 to 10000 nM

Can you check COc1ccccc1-n1nc(C)cc1Nc1ccc(S(=O)(=O)Nc2nccs2)cc1F [Compound 215] next? < 2000 nM

Also, CC(C)(C)c1ccc(OCc2csc(Nc3ccc(S(=O)(=O)Nc4nccs4)c(F)c3)n2)cc1 [Compound 102] please. < 2000 nM

Also Cc1cccc(NS(=O)(=O)c2ccc(Nc3ccn(Cc4ccc(Cl)cc4)n3)cc2F)n1 [Compound 259] ? > 3000 nM

Entry Cc1cc(Nc2ccc(S(=O)(=O)Nc3nccs3)c(F)c2)n(-c2cc(F)ccc2C)n1 [Compound 186] please < 2000 nM

====

Each entry below lists one item and its recorded pIC50 value.
# system under test: hSCN3A (Homo sapiens)
# Construct: expressed in transfected cells
# Sequence (Q9NY46 whole entry): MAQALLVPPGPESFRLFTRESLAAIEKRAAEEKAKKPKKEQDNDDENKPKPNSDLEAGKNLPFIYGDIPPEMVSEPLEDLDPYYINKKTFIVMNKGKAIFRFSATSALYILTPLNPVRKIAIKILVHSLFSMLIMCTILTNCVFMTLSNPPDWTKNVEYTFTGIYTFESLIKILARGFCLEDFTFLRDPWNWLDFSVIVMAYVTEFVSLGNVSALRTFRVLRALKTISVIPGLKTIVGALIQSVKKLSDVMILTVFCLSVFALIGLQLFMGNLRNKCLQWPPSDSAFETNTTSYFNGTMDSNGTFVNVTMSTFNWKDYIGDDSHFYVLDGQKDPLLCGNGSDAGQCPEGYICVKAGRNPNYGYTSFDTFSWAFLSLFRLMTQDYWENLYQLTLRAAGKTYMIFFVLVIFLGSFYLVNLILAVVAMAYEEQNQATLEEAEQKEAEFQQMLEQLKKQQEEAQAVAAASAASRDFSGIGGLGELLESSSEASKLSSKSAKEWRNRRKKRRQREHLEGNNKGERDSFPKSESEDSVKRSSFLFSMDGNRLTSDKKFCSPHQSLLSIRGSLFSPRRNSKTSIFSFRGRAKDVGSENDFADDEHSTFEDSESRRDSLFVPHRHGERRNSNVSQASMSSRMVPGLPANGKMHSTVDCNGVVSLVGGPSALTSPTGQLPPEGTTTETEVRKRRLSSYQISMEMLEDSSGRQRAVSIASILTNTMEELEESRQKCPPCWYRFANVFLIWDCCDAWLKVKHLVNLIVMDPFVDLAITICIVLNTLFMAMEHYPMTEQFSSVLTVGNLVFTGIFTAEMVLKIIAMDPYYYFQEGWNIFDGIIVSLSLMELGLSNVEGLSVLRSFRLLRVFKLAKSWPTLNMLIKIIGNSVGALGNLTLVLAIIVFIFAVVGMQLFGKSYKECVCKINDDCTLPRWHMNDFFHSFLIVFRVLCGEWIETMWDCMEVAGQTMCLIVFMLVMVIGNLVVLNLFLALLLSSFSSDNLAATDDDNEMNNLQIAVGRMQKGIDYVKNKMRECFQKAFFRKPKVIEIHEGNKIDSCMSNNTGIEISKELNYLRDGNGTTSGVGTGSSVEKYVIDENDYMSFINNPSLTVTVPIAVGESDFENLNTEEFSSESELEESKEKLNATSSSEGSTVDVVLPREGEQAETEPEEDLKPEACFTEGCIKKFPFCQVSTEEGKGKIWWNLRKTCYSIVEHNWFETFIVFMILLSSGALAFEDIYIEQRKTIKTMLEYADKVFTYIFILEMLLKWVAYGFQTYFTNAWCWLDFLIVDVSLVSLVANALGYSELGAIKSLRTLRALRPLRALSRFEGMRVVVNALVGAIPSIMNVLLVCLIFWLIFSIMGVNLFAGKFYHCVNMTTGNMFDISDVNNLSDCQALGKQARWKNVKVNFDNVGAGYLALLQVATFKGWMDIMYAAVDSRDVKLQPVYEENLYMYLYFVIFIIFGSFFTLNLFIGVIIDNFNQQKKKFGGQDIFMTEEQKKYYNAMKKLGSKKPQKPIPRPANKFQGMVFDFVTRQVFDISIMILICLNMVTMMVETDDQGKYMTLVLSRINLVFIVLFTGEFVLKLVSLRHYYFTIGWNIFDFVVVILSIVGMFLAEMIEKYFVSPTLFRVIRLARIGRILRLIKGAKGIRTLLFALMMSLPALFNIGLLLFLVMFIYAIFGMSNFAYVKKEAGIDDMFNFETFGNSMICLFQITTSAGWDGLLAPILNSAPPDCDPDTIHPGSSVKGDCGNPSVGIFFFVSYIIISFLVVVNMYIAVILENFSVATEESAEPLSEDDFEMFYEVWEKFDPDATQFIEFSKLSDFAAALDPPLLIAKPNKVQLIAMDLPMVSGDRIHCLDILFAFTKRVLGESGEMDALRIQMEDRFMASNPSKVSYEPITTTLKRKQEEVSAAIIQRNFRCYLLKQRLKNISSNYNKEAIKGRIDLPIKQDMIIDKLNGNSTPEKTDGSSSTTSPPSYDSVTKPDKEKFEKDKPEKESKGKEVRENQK
# procedure text: Whole-cell patch-clamp electrophysiology (conventional or PatchXpress), HEK cells expressing hSCN3A, estimated IC-50
# Type: cell-based
# measurement parameters: estimated IC-50, HEK cells expressing hSCN3A; class symbols or bounds; read-out: SCN3A EIC-50
pIC50: −log10 of the molar value.

Sample records with pIC50:
INSERT INTO measurements (compound, result) VALUES
  ('O=S(=O)(Nc1nccs1)c1ccc(Nc2ccnn2-c2ccccc2)cc1', '> 5.70'),
  ('O=S(=O)(Nc1nccs1)c1ccc(Nc2nc3cc(Cl)ccc3[nH]2)cc1', '> 5.70'),
  ('Cc1csc(NS(=O)(=O)c2ccc(Nc3nc(Cc4ccc(Cl)cc4)cs3)cc2F)n1', '> 5.70'),
  ('Cc1cc(Cl)ccc1OCc1csc(Nc2ccc(S(=O)(=O)Nc3nccs3)cc2)n1', '> 5.70');

# query: pIC50 of entry Cc1cc(NS(=O)(=O)c2ccc(Nc3nccc(OCc4ccc(C(F)(F)F)cc4)n3)cc2)no1 < 6.00

One more compound: Cc1cc(Nc2ccc(S(=O)(=O)Nc3nccs3)c(F)c2)n(-c2ccccc2C)n1 > 5.70

Check Cc1cc(Nc2ccc(S(=O)(=O)Nc3nccs3)c(F)c2)n(-c2ccccc2Cl)n1 too. > 5.70

Another compound to look at: O=S(=O)(Nc1nccs1)c1ccc(Nc2nc(CNCCOc3ccccc3)cs2)cc1 5.00 to 5.70

Could you do the same for O=C(Cn1ncc2cc(S(=O)(=O)Nc3nccs3)ccc21)c1ccc(F)cc1 , please? 5.00 to 5.70

Follow-up entry: O=S(=O)(Nc1nccs1)c1ccc(Nc2cccc(C(c3ccccc3)c3ccccc3)n2)cc1 > 5.70

And then CC(C)(Oc1ccc(Cl)cc1)c1csc(Nc2ccc(S(=O)(=O)Nc3nccs3)cc2)n1 , what is it? > 5.70
